All values here come from patent US20230079819A1.

Overview of reported IC50 across a group of molecules:
- systemName: BRM (Homo sapiens)
- Construct: made in house; host or cells: High Five insect cells
- Sequence (P51531 whole entry): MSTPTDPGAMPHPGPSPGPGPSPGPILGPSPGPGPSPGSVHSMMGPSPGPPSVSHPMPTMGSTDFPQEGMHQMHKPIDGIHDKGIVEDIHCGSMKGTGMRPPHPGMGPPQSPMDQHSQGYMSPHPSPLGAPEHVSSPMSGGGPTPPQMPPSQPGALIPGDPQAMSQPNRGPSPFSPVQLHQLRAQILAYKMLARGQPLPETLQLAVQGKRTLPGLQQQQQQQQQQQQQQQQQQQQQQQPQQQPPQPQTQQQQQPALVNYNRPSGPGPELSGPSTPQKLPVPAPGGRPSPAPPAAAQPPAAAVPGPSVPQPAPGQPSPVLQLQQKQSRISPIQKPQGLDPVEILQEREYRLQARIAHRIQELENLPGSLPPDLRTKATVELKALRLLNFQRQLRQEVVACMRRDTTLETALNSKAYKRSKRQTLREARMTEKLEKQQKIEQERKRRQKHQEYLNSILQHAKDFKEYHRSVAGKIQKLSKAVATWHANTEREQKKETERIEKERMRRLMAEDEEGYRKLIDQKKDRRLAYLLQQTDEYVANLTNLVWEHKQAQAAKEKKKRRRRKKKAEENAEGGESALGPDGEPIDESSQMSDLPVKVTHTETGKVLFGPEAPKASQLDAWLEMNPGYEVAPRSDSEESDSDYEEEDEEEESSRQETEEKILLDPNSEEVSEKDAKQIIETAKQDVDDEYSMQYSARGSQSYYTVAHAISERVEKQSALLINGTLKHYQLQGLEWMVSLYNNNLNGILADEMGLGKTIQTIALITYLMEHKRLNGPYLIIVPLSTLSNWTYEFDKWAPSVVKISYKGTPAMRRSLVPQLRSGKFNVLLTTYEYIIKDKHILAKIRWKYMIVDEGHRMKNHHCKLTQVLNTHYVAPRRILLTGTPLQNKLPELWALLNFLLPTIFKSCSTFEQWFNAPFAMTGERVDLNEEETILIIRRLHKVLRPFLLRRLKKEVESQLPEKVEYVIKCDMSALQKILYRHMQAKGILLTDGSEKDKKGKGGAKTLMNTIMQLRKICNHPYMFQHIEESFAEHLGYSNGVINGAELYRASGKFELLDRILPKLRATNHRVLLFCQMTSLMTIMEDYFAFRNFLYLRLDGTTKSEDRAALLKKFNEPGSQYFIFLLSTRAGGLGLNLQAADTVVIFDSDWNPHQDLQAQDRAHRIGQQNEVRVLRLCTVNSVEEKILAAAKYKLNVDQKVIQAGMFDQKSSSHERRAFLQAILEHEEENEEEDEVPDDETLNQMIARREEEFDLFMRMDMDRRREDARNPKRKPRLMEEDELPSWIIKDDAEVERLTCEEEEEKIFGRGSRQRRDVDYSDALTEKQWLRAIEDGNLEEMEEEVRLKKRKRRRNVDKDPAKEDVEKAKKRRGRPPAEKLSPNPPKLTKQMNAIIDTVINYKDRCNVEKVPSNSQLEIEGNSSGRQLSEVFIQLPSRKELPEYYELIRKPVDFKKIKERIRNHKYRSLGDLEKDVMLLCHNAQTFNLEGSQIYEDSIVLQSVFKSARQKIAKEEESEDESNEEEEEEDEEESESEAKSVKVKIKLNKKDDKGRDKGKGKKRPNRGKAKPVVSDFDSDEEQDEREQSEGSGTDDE
- assayText: ATPase catalytic activity of BRM, ADP-Glo in vitro biochemical assay
- statedConditions: ATPase catalytic activity, 30 nM BRM, 400 μM ATP, read-out: BRM IP50 (μM)*

Study these solved cases before continuing.
COC1CC2(C1)CN(c1cccc(-c3csc(NC(=O)CNC(=O)c4ccn(S(C)(=O)=O)c4)n3)c1)C2; > 0.01 µM
CS(=O)(=O)n1ccc(C(=O)NCC(=O)Nc2nc(-c3cccc(OC(F)F)c3)cs2)c1; > 0.01 µM
Cc1cc(-c2cccc(-c3csc(NC(=O)CNC(=O)c4ccn(C(C)(C)C)c4)n3)c2)ncn1; < 0.01 µM
CC1(C)CN(c2cccc(-c3csc(NC(=O)CNC(=O)c4ccn(S(C)(=O)=O)c4)n3)c2)CC[C@@H]1O; > 0.01 µM
C[C@@H]1CN(c2cccc(-c3csc(NC(=O)CNC(=O)c4ccn(C5(C)CC5)c4)n3)n2)C[C@H](C)O1; < 0.01 µM
Cc1cc(-c2cccc(-c3csc(NC(=O)CNC(=O)c4ccn(S(C)(=O)=O)c4)n3)c2)cc(C)n1; < 0.01 µM

# ---- query molecule ----
get_value(item= CC1(C)CN(c2cccc(-c3csc(NC(=O)CNC(=O)c4ccn(S(C)(=O)=O)c4)n3)c2)CCC1O (stereo not shown) , readout=IC50) returns < 0.01 µM

###

- systemName: BRG-1 (Homo sapiens)
- Construct: made in house; host or cells: High Five insect cells
- Sequence (P51532 whole entry): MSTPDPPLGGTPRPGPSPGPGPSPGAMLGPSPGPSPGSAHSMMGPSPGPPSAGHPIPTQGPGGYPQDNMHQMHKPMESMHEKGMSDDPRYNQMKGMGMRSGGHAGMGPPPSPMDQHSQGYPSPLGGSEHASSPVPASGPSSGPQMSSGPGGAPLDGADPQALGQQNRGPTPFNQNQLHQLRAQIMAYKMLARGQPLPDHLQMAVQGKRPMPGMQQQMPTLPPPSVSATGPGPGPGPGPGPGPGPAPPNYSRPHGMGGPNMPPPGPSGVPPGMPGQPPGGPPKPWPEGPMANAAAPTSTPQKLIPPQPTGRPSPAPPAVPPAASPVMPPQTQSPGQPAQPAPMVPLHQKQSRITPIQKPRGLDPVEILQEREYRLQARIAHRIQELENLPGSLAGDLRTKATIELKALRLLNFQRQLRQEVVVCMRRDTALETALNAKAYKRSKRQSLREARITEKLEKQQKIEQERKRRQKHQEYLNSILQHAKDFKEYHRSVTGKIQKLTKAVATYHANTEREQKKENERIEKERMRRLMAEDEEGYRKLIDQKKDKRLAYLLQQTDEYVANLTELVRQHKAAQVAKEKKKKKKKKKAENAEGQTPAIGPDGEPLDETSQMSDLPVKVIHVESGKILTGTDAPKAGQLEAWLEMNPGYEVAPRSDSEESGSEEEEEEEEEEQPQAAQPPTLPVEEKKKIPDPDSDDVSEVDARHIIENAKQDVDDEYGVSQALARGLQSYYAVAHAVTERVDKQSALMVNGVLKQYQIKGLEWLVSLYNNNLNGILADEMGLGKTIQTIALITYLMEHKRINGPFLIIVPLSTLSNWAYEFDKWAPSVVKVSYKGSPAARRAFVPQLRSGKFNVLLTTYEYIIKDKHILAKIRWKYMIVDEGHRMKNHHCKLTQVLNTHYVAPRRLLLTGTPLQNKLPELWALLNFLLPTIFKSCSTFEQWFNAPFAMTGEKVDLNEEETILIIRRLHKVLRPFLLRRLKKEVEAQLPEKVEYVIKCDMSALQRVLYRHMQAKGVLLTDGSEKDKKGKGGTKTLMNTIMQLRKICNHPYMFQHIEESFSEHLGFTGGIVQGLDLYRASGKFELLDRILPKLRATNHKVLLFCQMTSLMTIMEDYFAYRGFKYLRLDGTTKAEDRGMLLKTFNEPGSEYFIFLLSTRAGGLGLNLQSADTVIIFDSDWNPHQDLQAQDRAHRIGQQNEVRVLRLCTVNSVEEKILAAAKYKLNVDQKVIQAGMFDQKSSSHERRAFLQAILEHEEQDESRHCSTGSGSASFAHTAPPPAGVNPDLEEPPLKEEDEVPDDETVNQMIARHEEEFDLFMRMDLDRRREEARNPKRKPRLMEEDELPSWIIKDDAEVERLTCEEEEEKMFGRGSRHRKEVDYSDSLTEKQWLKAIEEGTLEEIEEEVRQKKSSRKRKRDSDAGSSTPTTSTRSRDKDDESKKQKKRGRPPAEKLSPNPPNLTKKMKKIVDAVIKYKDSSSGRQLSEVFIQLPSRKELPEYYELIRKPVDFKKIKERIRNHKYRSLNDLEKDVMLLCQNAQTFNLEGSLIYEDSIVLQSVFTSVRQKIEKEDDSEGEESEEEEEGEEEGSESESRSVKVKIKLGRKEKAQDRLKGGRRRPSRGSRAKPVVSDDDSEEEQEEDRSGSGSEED
- assayText: ATPase catalytic activity of BRG-1, ADP-Glo in vitro biochemical assay
- statedConditions: ATPase catalytic activity, 30 nM BRG-1, 400 μM ATP, read-out: BRG1 IP50 (μM)*
reportedProperty: IC50

COC[C@H](NC(=O)c1ccn(C2(C)COC2)c1)C(=O)Nc1nc(-c2ccc(F)c(N3C[C@@H](C)O[C@@H](C)C3)n2)cs1; > 0.01 µM
C[C@@H]1CN(c2nccc(-c3csc(NC(=O)CNC(=O)c4ccn(C5(C)COC5)c4)n3)n2)C[C@H](C)O1; > 0.01 µM
CC(C)(NC(=O)c1ccn(S(C)(=O)=O)c1)C(=O)Nc1nc(-c2cccc(-c3ccncc3)c2)cs1; > 0.1 µM

With BRG-1 (Homo sapiens) as the test system, COC1(C)CCN(c2cccc(-c3csc(NC(=O)CNC(=O)c4ccn(S(C)(=O)=O)c4)n3)c2)CC1 showed IC50 of > 0.1 µM

Sample CC1(C)CN(c2cccc(-c3csc(NC(=O)CNC(=O)c4ccn(S(C)(=O)=O)c4)n3)c2)CC[C@H]1O , system: BRG-1 (Homo sapiens). Its IC50 is > 0.01 µM

Result for CC(C)(Oc1ccncc1)c1cccc(-c2csc(NC(=O)CNC(=O)c3ccn(S(C)(=O)=O)c3)n2)c1 , tested on BRG-1 (Homo sapiens), IC50: > 0.1 µM

Lab entry: BRG-1 (Homo sapiens) assay, molecule COC[C@H](NC(=O)c1ccn(C(C)(C)C)c1)C(=O)Nc1nc(-c2ccnc(N3C[C@@H](C)O[C@@H](C)C3)n2)cs1 , IC50 = > 0.01 µM

IC50 for BRG-1 (Homo sapiens) with input Cn1ncc(-c2cccc(-c3csc(NC(=O)CNC(=O)c4ccn(C(C)(C)C)c4)n3)n2)n1 equals > 0.01 µM

For C[C@@H]1CN(c2cccc(-c3csc(NC(=O)CNC(=O)c4ccn(C(C)(C)C)n4)n3)n2)C[C@H](C)O1 on BRG-1 (Homo sapiens), measured IC50 was > 0.01 µM

BRG-1 (Homo sapiens) assay, molecule CN(C)c1cccc(-c2csc(NC(=O)CNC(=O)c3ccn(C(C)(C)C)c3)n2)c1 , recorded IC50 = > 0.01 µM
